- Test system: HCT-15 colon
- experiment-summary: NCI tumour cell line growth inhibition, 48 h
assay-readout: TGI

Known TGI results, listed for orientation:
[in] Please give the measured TGI for this compound: N#C[C@H](c1ccccn1)c1nc2ccccc2nc1Cl
[out] > 100 µM

[in] Please give the measured TGI for this compound: O=C1CCC(Cl)=CC2CCCN12 (stereo not drawn)
[out] > 100 µM

Shift focus to the following entry.
[in] Please give the measured TGI for this compound: Cc1ccc(-n2cnc(C(=N)C#N)c2N)cc1
[out] > 100 µM

====

- Test system: NCI-H23 lung
- experiment-summary: NCI tumour cell line growth inhibition, 48 h
assay-readout: TGI (µM)
Please reply with the bare figure in µM and do not write the unit itself.

Known TGI results, listed for orientation:
[in] Please give the measured TGI for this compound: CC(=O)CCn1ncc(Cl)c(Cl)c1=O
[out] 32.6

[in] Please give the measured TGI for this compound: [N-]=[N+]=Nc1c([N+](=O)[O-])c(=O)n(-c2ccccc2)c2ccccc12
[out] 60.7

[in] Please give the measured TGI for this compound: Cc1n(Cc2ccccc2)c2c([n+]1C)C(=O)c1ccccc1C2=O
[out] 0.177

Next:
[in] Please give the measured TGI for this compound: CCOC(=O)C(C#N)C1=CC(=O)C(=O)c2ccc(OC)cc21 (stereo not given)
[out] 30.6

[in] Please give the measured TGI for this compound: Brc1ccc2[nH]cc(-c3csc(-c4c[nH]c5ccccc45)n3)c2c1
[out] 8.21

[in] Please give the measured TGI for this compound: COc1ccc(/C=C\[N+](=O)[O-])cc1OC
[out] 6.52
